Item-by-item account of %Inh
test system: WNK1; settings: concentration: 1 μM, replicates: in singlicate; n = 1;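 note: KINOMEscan kinase panel screen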
Metric: %Inh (%)

>>> value_observed("COc1ccc2cc(-c3nc(-c4ccccc4C(C)C)[nH]c3-c3ccncc3)ccc2c1 [SB-660566]")
10
>>> value_observed("CNCc1ccc2nc(NC(=O)c3ccc(C(C)(C)C)cc3)cn2c1")
0
>>> value_observed("O=C1NC(=O)C(c2ccc(Cl)cc2)=C1Nc1ccc(O)cc1 [SB-340867]")
0
>>> value_observed("Cc1ccc(NC(=O)Nc2ccccc2)cc1-c1ccc(C(=O)Nc2ccncc2)cc1 [GSK1398471]")
0
>>> value_observed("Cc1ccccc1-c1cc(-c2c[nH]nc2-c2ccccn2)ccn1 [GW680061]")
14
>>> value_observed("COc1ccc(Nc2nccc(N3CCC(NC(=O)C(C)c4ccc(Cl)cc4)C3)n2)cc1 (centres unmarked) [GSK1379735]")
6
>>> value_observed("Cn1cnc2c(N)ncnc21 [SKF-97623]")
0
>>> value_observed("Cc1c(Cn2c3ccccc3n3c(=O)cc(N4CCOCC4)nc23)cccc1C(F)(F)F [GSK2306394]")
2
>>> value_observed("COc1ccc(Nc2nccc(N3CCC(NC(=O)C(C)c4ccc(Cl)cc4)CC3)n2)cc1 (centres unmarked) [GSK1379812]")
0
>>> value_observed("COC(=O)c1cccc(NC(=O)NC2CCN(c3ccnc(Nc4ccc(OC)cc4)n3)C2)c1 (centres unmarked) [GSK1379746]")
11
>>> value_observed("Fc1ccc(-c2nc3n(c2-c2ccncc2)CCS3)cc1 [GI98581]")
0
>>> value_observed("Cc1ccc(NC(=O)Nc2ccc(Cl)c(C(F)(F)F)c2)cc1-c1ccc(C(=O)Nc2ccncc2)cc1 [GSK1398470]")
0
>>> value_observed("COc1cccc(NC(=O)Nc2ccc(C)c(-c3ccc(C(=O)Nc4ccncc4)cc3)c2)c1 [GSK1398474]")
0
>>> value_observed("CNc1nc(-c2ccc3c(N)n[nH]c3c2)cc(N2C[C@@H](C(=O)NC3CCCCC3)OC[C@H]2C)n1 [GSK2375584]")
5
>>> value_observed("Cc1c(Cn2c(C)c(C)n3c(=O)cc(N4CCOCC4)nc23)cccc1C(F)(F)F [GSK2328680]")
0
>>> value_observed("CNc1nc(-c2ccc3c(N)n[nH]c3c2)cc(N2C[C@@H](C(=O)Nc3ccccc3)CC[C@H]2C)n1 [GSK2298859]")
0
>>> value_observed("Cc1cnc(N)c(/C=C/c2cncc(C(=O)NCCc3ccc(Cl)cc3Cl)c2)c1.Cl [GSK190937]")
3
>>> value_observed("Fc1ccc(-c2nc[nH]c2-c2ccncc2)cc1 [SB-217360]")
11
>>> value_observed("Nc1ncnc2occ(-c3ccc4c(c3)CCN4C(=O)Cc3cc(F)ccc3F)c12 [GSK2645446]")
1
>>> value_observed("Nc1nccc(-c2c(-c3ccc(F)cc3)ncn2C2CCN(Cc3ccccc3)CC2)n1 [SB-219980]")
7
>>> value_observed("COc1ccc(CSc2nnc(-c3ccc4c(c3)CCO4)o2)cc1")
0
>>> value_observed("COc1nccc(-c2c(-c3ccc(F)cc3)ncn2CCCN2CCOCC2)n1 [SB-282852]")
11
>>> value_observed("Cn1cncc1C(=O)NC1CCN(c2ccnc(Nc3ccc(F)cc3)n2)C1 (centres unmarked) [GSK1379717]")
12
>>> value_observed("CC[C@@H]1CO[C@H](C(=O)Nc2ccccc2)CN1c1cc(-c2ccc3c(N)n[nH]c3c2)nc(NC)n1 [GSK2376236]")
4
>>> value_observed("Nc1cccc(-c2ccc3c(N)n[nH]c3c2)n1 [GSK2192730]")
23
>>> value_observed("CNc1cc(-c2ccc3c(N)n[nH]c3c2)nc(N)n1 [GSK2224810]")
0
>>> value_observed("Cc1ccc(NC(=O)Nc2ccccc2F)cc1-c1ccc(C(=O)Nc2ccncc2)cc1 [GSK1398477]")
2
>>> value_observed("COc1ccc(-c2coc3ccc(-c4nnc(C)o4)cc23)cc1")
0
>>> value_observed("CC(=O)c1c(C)c2cnc(Nc3ccn(C)n3)nc2n(C2CCCC2)c1=O")
0
>>> value_observed("Cc1cccc2c(-c3ccncn3)c(-c3ccc(F)cc3)nn12 [GW515532]")
16
>>> value_observed("COc1cccc(CNC(=O)NC2CCN(c3ccnc(Nc4ccc(F)cc4)n3)C2)c1 (centres unmarked) [GSK1379723]")
6
>>> value_observed("O=C(Nc1n[nH]c2nc(-c3cccs3)c(Br)cc12)C1CC1 [SB-735297]")
0
